- experiment_summary: Half life in human
- Type: ADME
readout_kind: half-life

smiles_data=Cc1c(C2(c3ccc(C(F)(F)F)nc3)CC2)c[nH]c1C(=O)N[C@H](C)c1nc[nH]n1 result="> 100 h"

----------
- experiment_summary: Plasma protein binding in human measured for 6 hrs by rapid equilibrium dialysis
- Type: ADME, cell-free
Entries and their measured PPB follow.
readout_kind: PPB (%)

smiles_data=CC[C@@](O)(c1cnc(C(F)(F)F)c(Cl)c1)c1c2cnn(C3CC3)c(=O)c2nn1C readout_kind=PPB numeric_value=78.2
smiles_data=Cn1nc2c(=O)n(C3CC3)ccc2c1[C@](O)(c1cnc(C(F)(F)F)c(Cl)c1)C1CC1 readout_kind=PPB numeric_value=95.8
smiles_data=Cn1nc2c(=O)n(C3CC3)cnc2c1[C@](O)(c1cnc(C(F)(F)F)c(Cl)c1)C(F)(F)F readout_kind=PPB numeric_value=98.9
smiles_data=Cn1nc2c(=O)n(C3CC3)ncc2c1[C@](N)(c1ccc(C(F)(F)F)c(Cl)c1)C1CC1 readout_kind=PPB numeric_value=90.8
smiles_data=CCn1ccc2c([C@](O)(c3cnc(C(F)(F)F)c(Cl)c3)C3CC3)n(C)nc2c1=O readout_kind=PPB numeric_value=70.4
smiles_data=CC[C@@](O)(c1cnc(C(F)(F)F)c(Cl)c1)c1c2ccn(C3CC3)c(=O)c2nn1C readout_kind=PPB numeric_value=94
smiles_data=Cn1nc2c(=O)n(C3CC3)ccc2c1[C@](O)(c1cnc(C(F)(F)F)c(Cl)c1)C(F)(F)F readout_kind=PPB numeric_value=68.5
smiles_data=Cn1nc2c(=O)n(C3CC3)ncc2c1[C@](O)(c1cnc(C(F)(F)F)c(Cl)c1)C(F)(F)F readout_kind=PPB numeric_value=99.1

----------
- experiment_summary: Kinetic solubility of compound at pH 6.5 measured after 30 mins by nephelometry
- Type: physicochemical
- conditions_used: buffer, pH 6.5, read-out: Kinetic_solubility
Label Fulfilled when solubility kinetic at 0.5 h is at or above 50 µM; otherwise label Not fulfilled.

smiles_data=CCn1cc(C)c2c([C@H](O)c3cnc(C(F)(F)F)c(Cl)c3)n(C)nc2c1=O group=Fulfilled
smiles_data=CCn1cc(C2CC2)c2c(CN3CCC(F)(F)CC3(C)C)n(C)nc2c1=O group="Not fulfilled"
smiles_data=Cn1nc2c(=O)n(C3CC3)ncc2c1[C@](O)(c1cnc(C(F)(F)F)c(Cl)c1)C(F)(F)F group="Not fulfilled"
smiles_data=CC[C@@](O)(c1ccc(C(F)(F)F)c(C#N)c1)c1c2ccn(C3CC3)c(=O)c2nn1C group="Not fulfilled"
smiles_data=CCn1ccc2c([C@](O)(c3cnc(C(F)(F)F)c(Cl)c3)C3CC3)n(C)nc2c1=O group="Not fulfilled"
smiles_data=CCn1ccc2c([C@@](O)(CC)c3ccc(C(F)(F)F)nc3)n(C)nc2c1=O group="Not fulfilled"
smiles_data=Cn1nc2c(=O)n(C3CC3)ccc2c1[C@](O)(c1cnc(C(F)(F)F)c(Cl)c1)C1CC1 group="Not fulfilled"
smiles_data=Cn1nc2c(=O)n(C3CC3)ncc2c1[C@](N)(c1ccc(C(F)(F)F)c(Cl)c1)C1CC1 group="Not fulfilled"
smiles_data=CCn1ccc2c([C@](C)(O)c3cnc(C(F)(F)F)c(Cl)c3)n(C)nc2c1=O group=Fulfilled
smiles_data=CCn1cc(C2CC2)c2c(CN3CCC4(CCC4)CC3)n(C)nc2c1=O group=Fulfilled
smiles_data=CCn1ccc2c([C@](O)(c3ccc(C(F)(F)F)nc3)C3CC3)n(C)nc2c1=O group=Fulfilled
smiles_data=CCn1ccc2c([C@@](O)(CC)c3cnc(C(F)(F)F)c(Cl)c3)n(C)nc2c1=O group="Not fulfilled"
smiles_data=CCn1cc(C2CC2)c2c(CN3CCCC(F)(F)C3)n(C)nc2c1=O group=Fulfilled
smiles_data=CCn1cc(C2CC2)c2c([C@H](O)c3ccc(C(F)(F)F)nc3)n(C)nc2c1=O group=Fulfilled
smiles_data=CC[C@@](N)(c1cnc(C(F)(F)F)c(Cl)c1)c1c2ncn(C3CC3)c(=O)c2nn1C group=Fulfilled
smiles_data=Cn1nc2c(=O)n(C3CC3)cnc2c1[C@](O)(c1ccc(C(F)(F)F)c(C#N)c1)C(F)(F)F group="Not fulfilled"

----------
We begin with a simple list: items and their reported IC50.
- target_or_test_system: Dihydroorotate dehydrogenase (quinone), mitochondrial (Homo sapiens)
- Sequence (Q02127 whole entry, the tested form may be a part): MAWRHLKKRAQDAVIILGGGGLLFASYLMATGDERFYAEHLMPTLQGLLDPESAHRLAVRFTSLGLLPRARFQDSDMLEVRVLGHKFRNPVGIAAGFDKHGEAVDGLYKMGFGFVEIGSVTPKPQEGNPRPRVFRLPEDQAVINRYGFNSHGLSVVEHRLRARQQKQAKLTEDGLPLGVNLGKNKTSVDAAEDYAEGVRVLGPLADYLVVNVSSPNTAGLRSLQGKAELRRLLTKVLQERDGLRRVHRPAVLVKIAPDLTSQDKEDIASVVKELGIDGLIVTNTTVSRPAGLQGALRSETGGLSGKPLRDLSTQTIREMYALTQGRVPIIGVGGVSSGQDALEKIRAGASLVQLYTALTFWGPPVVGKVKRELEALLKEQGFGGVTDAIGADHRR
- experiment_summary: Inhibition of C-terminal His6-tagged recombinant human DHODH (29 to 395 residues) N-terminally truncated soluble domain extracted from Escherichia coli phage resistant BL21-DE3 using CoQD/DHA/DCIP as substrates
readout_kind: IC50

smiles_data=CCn1cc(C2CC2)c2c(CN3CCC4(CCC4)CC3)n(C)nc2c1=O readout_kind=IC50 result="22 µM"
smiles_data=CCn1ccc2c([C@](O)(c3ccc(C(F)(F)F)nc3)C3CC3)n(C)nc2c1=O readout_kind=IC50 result="> 100 µM"
smiles_data=CCn1cc(C)c2c([C@H](O)c3cnc(C(F)(F)F)c(Cl)c3)n(C)nc2c1=O readout_kind=IC50 result="> 100 µM"
smiles_data=CC[C@@](O)(c1cnc(C(F)(F)F)c(Cl)c1)c1c2cnn(C3CC3)c(=O)c2nn1C readout_kind=IC50 result="> 30 µM"
smiles_data=CCn1cc(C2CC2)c2c(Cc3cnc(C(F)(F)F)c(OC)c3)n(C)nc2c1=O readout_kind=IC50 result="> 100 µM"
smiles_data=Cn1nc2c(=O)n(C3CC3)ccc2c1[C@](N)(c1cnc(C(F)(F)F)c(Cl)c1)C(F)(F)F readout_kind=IC50 result="> 30 µM"
smiles_data=CC[C@@](O)(c1ccc(C(F)(F)F)c(C#N)c1)c1c2ccn(C3CC3)c(=O)c2nn1C readout_kind=IC50 result="0.96 µM"
smiles_data=Cn1nc2c(=O)n(C3CC3)ccc2c1[C@](O)(c1ccc(C(F)(F)F)nc1)C1CC1 readout_kind=IC50 result="> 30 µM"
smiles_data=CCn1cc(C2CC2)c2c(CN3CCC(F)(F)CC3)n(C)nc2c1=O readout_kind=IC50 result="> 100 µM"
smiles_data=CCn1cc(C2CC2)c2c(Cc3ccc(C(F)(F)F)c(C#N)c3)n(C)nc2c1=O readout_kind=IC50 result="11 µM"
smiles_data=CCn1cc(C2CC2)c2c(Cc3cnc(C(F)(F)F)c(C)c3)n(C)nc2c1=O readout_kind=IC50 result="67 µM"
smiles_data=CC[C@@](O)(c1ccc(F)c(Cl)c1)c1c2ccn(C3CC3)c(=O)c2nn1C readout_kind=IC50 result="0.7 µM"
smiles_data=Cn1nc2c(=O)n(C3CC3)ccc2c1[C@](O)(c1ccc(C(F)(F)F)nc1)C(F)(F)F readout_kind=IC50 result="> 30 µM"
smiles_data=CCn1cc(C2CC2)c2c(CN3CCC(F)(F)C(C)(C)C3)n(C)nc2c1=O readout_kind=IC50 result="> 30 µM"
smiles_data=CC(C)n1ccc2c(Cc3ccc(C(F)(F)F)nc3)n(C)nc2c1=O readout_kind=IC50 result="> 100 µM"
smiles_data=Cn1nc2c(=O)n(C3CC3)ncc2c1[C@](O)(c1cnc(C(F)(F)F)c(Cl)c1)C1CC1 readout_kind=IC50 result="> 30 µM"
smiles_data=CCn1cc(C2CC2)c2c(Cc3ccc(C(F)(F)F)nc3)n(C)nc2c1=O readout_kind=IC50 result="> 100 µM"
smiles_data=CCn1cc(C2CC2)c2c(CN3CCC(C)(F)CC3)n(C)nc2c1=O readout_kind=IC50 result="> 30 µM"
smiles_data=CCn1cc(C)c2c([C@H](N)c3ccc(C(F)(F)F)nc3)n(C)nc2c1=O readout_kind=IC50 result="> 100 µM"
smiles_data=CCn1ccc2c([C@](C)(O)c3cnc(C(F)(F)F)c(Cl)c3)n(C)nc2c1=O readout_kind=IC50 result="> 100 µM"

----------
Parameter: PPB. Scope: all listed entries.
- experiment_summary: Plasma protein binding in rat measured for 6 hrs by rapid equilibrium dialysis
- Type: ADME, cell-free
readout_kind: PPB (%)

smiles_data=CC[C@@](O)(c1cnc(C(F)(F)F)c(Cl)c1)c1c2cnn(C3CC3)c(=O)c2nn1C readout_kind=PPB display_unit=% numeric_value=84.9
smiles_data=Cn1nc2c(=O)n(C3CC3)cnc2c1[C@](O)(c1cnc(C(F)(F)F)c(Cl)c1)C(F)(F)F readout_kind=PPB display_unit=% numeric_value=97.2
smiles_data=Cn1nc2c(=O)n(C3CC3)ncc2c1[C@](O)(c1cnc(C(F)(F)F)c(Cl)c1)C(F)(F)F readout_kind=PPB display_unit=% numeric_value=97.3
smiles_data=Cn1nc2c(=O)n(C3CC3)ccc2c1[C@](O)(c1cnc(C(F)(F)F)c(Cl)c1)C1CC1 readout_kind=PPB display_unit=% numeric_value=93
smiles_data=Cn1nc2c(=O)n(C3CC3)ccc2c1[C@](O)(c1cnc(C(F)(F)F)c(Cl)c1)C(F)(F)F readout_kind=PPB display_unit=% numeric_value=75.9
smiles_data=CCn1ccc2c([C@@](O)(CC)c3ccc(C(F)(F)F)nc3)n(C)nc2c1=O readout_kind=PPB display_unit=% numeric_value=75.4
smiles_data=CC[C@@](O)(c1cnc(C(F)(F)F)c(Cl)c1)c1c2ccn(C3CC3)c(=O)c2nn1C readout_kind=PPB display_unit=% numeric_value=89.4
smiles_data=Cn1nc2c(=O)n(C3CC3)ncc2c1[C@](N)(c1ccc(C(F)(F)F)c(Cl)c1)C1CC1 readout_kind=PPB display_unit=% numeric_value=86
smiles_data=CCn1ccc2c([C@](O)(c3cnc(C(F)(F)F)c(Cl)c3)C3CC3)n(C)nc2c1=O readout_kind=PPB display_unit=% numeric_value=64
